Source listed as PubChem BioAssay.

# assay.comment: basal RPMI8226 mitochondrial membrane potential changes, profiling panel, cell-based, JC-1 fluorescence, 24 h, 100 nL compound (AID 1169); further: test concentration not given here
# measurement.parameters: RPMI8226 myeloma, JC-1 mitochondrial potential fluorescence, higher = more signal
Kindly return fulfilled if reported z-score is no lower than -0.4; return not fulfilled if it is lower.

q: Textbook exercise: given the entry `COCCOC(=O)N1C(=O)[C@@]2(c3ccccc31)[C@H](c1ccc(OCCO)cc1)N1[C@H](c3ccccc3)[C@H](c3ccccc3)OC(=O)[C@H]1[C@@H]2C(=O)Nc1nc2ccccc2s1` , state whether its z-score is greater than or equal to -0.4.
a: not fulfilled

q: Textbook exercise: given the entry `C=CC[C@]1(C(=O)N(C)C)N=C(c2ccc(OCCCO)cc2)O[C@H]1c1ccccc1N=[N+]=[N-]` , state whether its z-score is greater than or equal to -0.4.
a: not fulfilled

q: Textbook exercise: given the entry `O=C1O[C@@H](c2ccccc2)[C@@H](c2ccccc2)N2[C@@H](c3ccc(O)cc3)[C@]3(C(=O)Nc4ccc(C#CCCO)cc43)[C@@H](C(=O)Nc3nc4ccccc4s3)[C@H]12` , state whether its z-score is greater than or equal to -0.4.
a: not fulfilled

q: Textbook exercise: given the entry `[N-]=[N+]=Nc1ccccc1[C@@H]1OC(c2ccc(OCCCO)cc2)=N[C@]1(CCS(=O)(=O)c1ccccc1)C(=O)NCCN1CCOCC1` , state whether its z-score is greater than or equal to -0.4.
a: not fulfilled

q: Textbook exercise: given the entry `C[C@]1(C(=O)NC2CC2)c2ccccc2C(=O)N(Cc2ccc(OC(F)(F)F)cc2)[C@H]1c1ccc(CO)cc1` , state whether its z-score is greater than or equal to -0.4.
a: fulfilled

q: Textbook exercise: given the entry `CC(C)N1C(=O)[C@@]2(c3ccc([N+](=O)[O-])cc3)CC(=O)N(C3CCCCC3)[C@@H]2c2ccc(CO)cc21` , state whether its z-score is greater than or equal to -0.4.
a: fulfilled

q: Textbook exercise: given the entry CCCCC(CC)C(O)C1C=CC2C(=O)N(c3ccccc3)C(=O)C2N1Nc1ccc([N+](=O)[O-])cc1 (stereo not drawn) , state whether its z-score is greater than or equal to -0.4.
a: fulfilled

###

Answer each item with its documented composite z-score.
# assay.comment: small-molecule microarray binders of probe aLefty2, primary screen, biochemical, biotinylated probe, 635/667 nm fluorescence (AID 1094);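 further: score merges spot fluorescence near 667 nm with spot signal-to-noise ratio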
# measurement.parameters: higher = more signal

The reported composite z-score of the compound `COCCOC(=O)N1C(=O)[C@@]2(c3cc(C#CC4=CCCCC4)ccc31)[C@H](c1ccccc1OCCO)N1[C@H](c3ccccc3)[C@H](c3ccccc3)OC(=O)[C@H]1[C@@H]2C(=O)N1CCc2cc(OC)c(OC)cc2C1` was -0.479

The reported composite z-score of the compound `CC(C)(C)OC(=O)CC[C@]1(C(=O)O)N=C(c2ccc(OCCCO)cc2)O[C@H]1c1ccccc1CN=[N+]=[N-]` was -0.0991

The reported composite z-score of the compound `CC(C)C(=C=CC[C@@H](O)c1ccccc1OCCO)C[C@@H](O)COCc1ccccc1` was -0.139

The reported composite z-score of the compound `CN(C)CCCNC(=O)[C@@H]1c2ccccc2C(=O)N(CC23CC4CC(CC(C4)C2)C3)[C@H]1c1ccc(CO)cc1` was -0.227

The reported composite z-score of the compound `COC(=O)[C@@]1(Cc2ccc(OC)cc2)[C@H]2c3cc(C(=O)N(C)C)n(Cc4nc5ccccc5[nH]4)c3C[C@H]2CN1C(=O)c1ccccc1` was 0.3

The reported composite z-score of the compound `COc1ccc(CCNC(=O)[C@@]2(Sc3ccc(C)cc3)CC(=O)N(Cc3cc(C(F)(F)F)cc(C(F)(F)F)c3)[C@@H]2c2ccc(CO)cc2I)cc1` was -0.0208

The reported composite z-score of the compound `C=CC[C@H](OC(=O)Nc1ccc(OC)cc1)c1ccc(O)c2ccccc12` was 0.054

The reported composite z-score of the compound `CCOC(=O)C[C@H]1[C@H](OC(=O)c2ccccc2-c2ccccc2)[C@@H](NC(=O)c2ccc3ccccc3n2)c2cc(OCCCO)ccc2N1C(=O)c1ccc2ccccc2n1` was -0.269

###

# assay.comment: PSAC antagonists in infected red cells, primary screen, cell-based, P. falciparum Indochina, OD700, 2 h (AID 1155);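 further: lysis reports solute entry through the parasite surface anion channel PSAC; channel blockers reduce lysis of infected cells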
# measurement.parameters: P. falciparum Indochina infected erythrocytes, osmotic lysis OD700; higher = more signal, called active from +8 up or from −8 down
Answer each item with its documented z-score.
Enter a number only.

The reported z-score of the molecule CC1CC/C=C\[C@H]2OC34C=CCN(CCN5CCOCC5)C(=O)[C@H]3N(CCO)C(=O)[C@@H]4C2C(=O)O1 (stereo partly drawn) was 0.397

The reported z-score of the molecule `COc1ccc([Si](C)(C)[C@H]2[C@H](CCn3cc(CCO)nn3)O[C@@]3(C(=O)N(Cc4ccc(N5C(=O)c6cccc7cccc5c67)cc4)c4ccccc43)[C@@H]2C)cc1` was 0.882

The reported z-score of the molecule `C=CC[C@H](OC(=O)Nc1ccc(OC)cc1)c1ccc(O)c2ccccc12` was 0.919

###

# assay.comment: cell viability in Huh7 cells, primary screen, cytotoxicity control for HCV replication inhibitor project, CellTiter-Glo luminescence, basal, 48 h (AID 1143);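 further: Huh7 hepatoma cells carrying a hepatitis C replication reporter with no stimulus; test concentration not given here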
# measurement.parameters: Huh7 HCV replicon, higher = more signal, called active from +8 up or from −8 down
Kindly return 1 (yes) if reported z-score is no lower than -2; return 0 (no) if it is lower.

q: Textbook exercise: given the entry `C[C@H]1ON(c2ccc(C(=O)OC(C)(C)C)cc2)[C@@H](c2ccc(O)cc2)[C@@H]1C(=O)N1C(=O)OC[C@@H]1c1ccccc1` , state whether its z-score is greater than or equal to -2.
a: 0 (no)

q: Textbook exercise: given the entry `COCCOC(=O)N1C(=O)[C@@]2(c3cc(C#Cc4ccc(OC)cc4)ccc31)[C@H](C(=O)N1CCN(c3ncccn3)CC1)[C@H]1C(=O)O[C@H](c3ccccc3)[C@H](c3ccccc3)N1[C@@H]2c1ccccc1OCCO` , state whether its z-score is greater than or equal to -2.
a: 1 (yes)

q: Textbook exercise: given the entry `Cc1ccc(S[C@]2(C(=O)NCC(F)(F)F)CC(=O)N(Cc3ccccc3)[C@@H]2c2ccc(CO)cc2)cc1` , state whether its z-score is greater than or equal to -2.
a: 0 (no)

q: Textbook exercise: given the entry CC[C@H]1C2=C3C(CC[C@H]4C(OCc5ccc(F)cc5C(F)(F)F)OC[C@](C)([C@@H]34)N(C(=O)OC(C)(C)C)C2)C2COC(=O)OCC21 (some centres not stated) , state whether its z-score is greater than or equal to -2.
a: 0 (no)

q: Textbook exercise: given the entry `NC(=O)NCC#Cc1ccc2c(c1)[C@]1(C(=O)N2)[C@H](C(=O)Nc2nc3ccccc3s2)[C@H]2C(=O)O[C@H](c3ccccc3)[C@H](c3ccccc3)N2[C@@H]1c1ccc(O)cc1` , state whether its z-score is greater than or equal to -2.
a: 1 (yes)

q: Textbook exercise: given the entry `CO[C@H]1O[C@H](CO)[C@@H](OC(=O)Nc2ccccc2-c2ccccc2)[C@H](OC(=O)Nc2ccc3c(c2)OCO3)[C@@H]1OC(=O)Nc1ccc2c(c1)OCO2` , state whether its z-score is greater than or equal to -2.
a: 0 (no)

q: Textbook exercise: given the entry `CC(C)(C)OC(=O)CC[C@@]1(C(=O)O)N=C(c2ccc(OCCCO)cc2)O[C@@H]1c1ccccc1CN=[N+]=[N-]` , state whether its z-score is greater than or equal to -2.
a: 1 (yes)

###

# assay.comment: PSAC antagonists in infected red cells, primary screen, cell-based, P. falciparum Indochina, OD700, 2 h (AID 1155);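 further: lysis reports solute entry through the parasite surface anion channel PSAC; channel blockers reduce lysis of infected cells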
# measurement.parameters: P. falciparum Indochina infected erythrocytes, osmotic lysis OD700; higher = more signal, called active from +8 up or from −8 down
Answer each item with its documented z-score.
Enter a number only.

The reported z-score of the compound `COCCOC(=O)N1C(=O)[C@@]2(c3cc(C#CC4=CCCCC4)ccc31)[C@H](c1ccccc1OCCO)N1[C@H](c3ccccc3)[C@H](c3ccccc3)OC(=O)[C@H]1[C@@H]2C(=O)N1CCc2cc(OC)c(OC)cc2C1` was 1.85

The reported z-score of the compound `COCCCNC(=O)[C@]1(CCC(=O)OC(C)(C)C)N=C(c2ccc(OCCCO)cc2)O[C@@H]1c1ccccc1` was 1.61

The reported z-score of the compound `C=C(CCCC)/C(=C/C[C@@H](OC(=O)c1ccncc1)c1cccc(OCCO)c1)c1cnc2ccccc2c1` was 3.53

The reported z-score of the compound CN1C(=O)C2C=CC(C(O)C3CCCCC3)N(N3CCCCC3)C2C1=O (stereo unspecified) was 0.257

The reported z-score of the compound `Cc1ccc(S[C@]2(C(=O)NCC(F)(F)F)CC(=O)N(Cc3ccccc3)[C@@H]2c2ccc(CO)cc2)cc1` was -0.821

The reported z-score of the compound `C=C(CCCC)C(=O)CC[C@@H](OC(=O)c1ccccc1-c1ccccc1C(=O)O)c1cccc(OCCO)c1` was 4.27

The reported z-score of the compound `CC(C)(C)OC(=O)CC[C@]1(C(=O)NCCN2CCOCC2)N=C(c2ccc(OCCCO)cc2)O[C@H]1c1ccccc1` was 1.5

The reported z-score of the compound `Cc1ccc(F)cc1S(=O)(=O)N[C@@H]1CCN(Cc2ccc(Oc3ccccc3)cc2)C1` was 1.9

The reported z-score of the compound `C=CCNC(=O)[C@@H]1[C@H]2C(=O)O[C@H](c3ccccc3)[C@H](c3ccccc3)N2[C@H](c2ccc(OCCO)cc2)[C@@]12C(=O)N(C(=O)OCCOC)c1ccc(C#CC3=CCCCC3)cc12` was 2.12

The reported z-score of the compound CC(C)N1CC=CC23O[C@@H]4C=CCCOC(=O)C4[C@H]2C(=O)N(CCO)[C@@H]3C1=O (stereo partly specified) was 0.568

The reported z-score of the compound `COCCOC(=O)N1C(=O)[C@@]2(c3cc(C#Cc4ccc(OC)cc4)ccc31)[C@H](C(=O)N1CCN(c3ncccn3)CC1)[C@H]1C(=O)O[C@H](c3ccccc3)[C@H](c3ccccc3)N1[C@@H]2c1ccccc1OCCO` was 2.29
